Data provenance: ChEMBL document CHEMBL3870315

# MEASUREMENT_DESCRIPTION: Cmax in Sprague-Dawley rat at 50 mg/Kg, po
# Type: ADME
# Design: dose 50 mg/Kg, route oral
# MEASUREMENT_CONTEXT: in vivo
MEASURED_QUANTITY: Cmax (ng/mL)
Give your result in ng/mL as a bare value.

Recall and state the measured Cmax for `COc1ccc(C(C)C)cc1C1=C(CN(Cc2cc(C(F)(F)F)cc(C(F)(F)F)c2)c2ncc(-c3cnn(C)c3)cn2)CC(C)(C)CC1` .
697

---

# MEASUREMENT_DESCRIPTION: AUC in Sprague-Dawley rat at 50 mg/Kg, po
# Format: ADME
# MEASUREMENT_CONTEXT: in vivo
MEASURED_QUANTITY: AUC (ng·h/mL)
Number in ng·h/mL, nothing else.

Supply reported AUC belonging to this molecule: `COc1ccc(C(C)C)cc1C1=C(CN(Cc2cc(C(F)(F)F)cc(C(F)(F)F)c2)c2ncc(-c3cnn(C)c3)cn2)CC(C)(C)CC1`
6990

---

# MEASUREMENT_DESCRIPTION: Terminal half life in Sprague-Dawley rat at 50 mg/Kg, po
# Format: ADME
# MEASUREMENT_CONTEXT: in vivo, read-out: beta t1/2 (converted)
MEASURED_QUANTITY: half-life (h)
State just the number; it will be interpreted in h.

Return half-life for the following molecule: `COc1ccc(C(C)C)cc1C1=C(CN(Cc2cc(C(F)(F)F)cc(C(F)(F)F)c2)c2ncc(-c3cnn(C)c3)cn2)CC(C)(C)CC1`
11.1

---

# SYSTEM_UNDER_TEST: Cholesteryl ester transfer protein (Homo sapiens)
# Sequence (P11597 whole entry): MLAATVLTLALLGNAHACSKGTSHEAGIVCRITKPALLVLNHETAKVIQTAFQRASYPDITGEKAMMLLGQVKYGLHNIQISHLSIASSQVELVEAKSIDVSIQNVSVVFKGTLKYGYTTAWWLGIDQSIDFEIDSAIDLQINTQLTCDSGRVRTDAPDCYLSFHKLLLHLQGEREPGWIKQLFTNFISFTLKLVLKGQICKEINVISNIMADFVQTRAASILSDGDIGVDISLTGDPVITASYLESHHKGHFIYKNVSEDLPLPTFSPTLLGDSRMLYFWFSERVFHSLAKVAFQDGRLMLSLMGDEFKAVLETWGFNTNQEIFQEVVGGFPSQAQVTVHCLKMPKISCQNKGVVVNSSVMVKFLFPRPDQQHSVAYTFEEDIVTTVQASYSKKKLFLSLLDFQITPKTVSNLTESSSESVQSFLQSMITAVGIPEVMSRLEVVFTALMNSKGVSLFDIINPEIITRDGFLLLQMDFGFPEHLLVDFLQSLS
# MEASUREMENT_DESCRIPTION: Inhibition of recombinant CETP (unknown origin) assessed as inhibition of BODIPY-labeled cholesteryl transfer to fluorescent substrate by fluorimetric assay
MEASURED_QUANTITY: IC50 (nM)
Expressed in nM, but write only the number.

Report its IC50 with Cholesteryl ester transfer protein (Homo sapiens) as the test system: `COCCOc1cnc(N(CC2=C(c3cc(C(C)C)ccc3OC)CCC(C)(C)C2)Cc2cc(C(F)(F)F)cc(C(F)(F)F)c2)nc1`
420

Give IC50 for this entry on Cholesteryl ester transfer protein (Homo sapiens): COc1ccc(C(C)C)cc1C1=C(CN(Cc2cc(C(F)(F)F)cc(C(F)(F)F)c2)c2ncc(-c3cnn(C)c3)cn2)CC(C)CC1 (stereo not drawn)
60

// output IC50; input `COc1ccc(C(C)C)cc1C1=C(CN(Cc2cc(C(F)(F)F)cc(C(F)(F)F)c2)c2ncc(-c3cnn(C)c3)cn2)CCCCC1` ; system Cholesteryl ester transfer protein (Homo sapiens)
1620

State IC50 (Cholesteryl ester transfer protein (Homo sapiens)) of `COc1ccc(C(C)C)cc1C1=C(CN(Cc2cc(C(F)(F)F)cc(C(F)(F)F)c2)c2ncc(-c3cnn(C)c3)cn2)CCC1` .
2760

With Cholesteryl ester transfer protein (Homo sapiens) as the test system, provide measured IC50 for this molecule: `COc1ccc(C(C)C)cc1C1=C(CN(Cc2cc(C(F)(F)F)cc(C(F)(F)F)c2)c2ncc(OCCO)cn2)CC(C)(C)CC1`
190

Enter recorded IC50 with Cholesteryl ester transfer protein (Homo sapiens) for `COC(=O)N(CC1=C(c2cc(C(C)C)ccc2OC)CCC(C)(C)C1)Cc1cc(C(F)(F)F)cc(C(F)(F)F)c1` here.
21000

Write down the reported IC50 (system: Cholesteryl ester transfer protein (Homo sapiens)) of `COc1ccc(C(C)C)cc1C1=C(CN(Cc2cc(C(F)(F)F)cc(C(F)(F)F)c2)c2ncc(N3CCNCC3)cn2)CC(C)(C)CC1`
350

State the measured IC50 (Cholesteryl ester transfer protein (Homo sapiens)) of `COc1ccc(C(C)C)cc1C1=C(CN(Cc2cc(C(F)(F)F)cc(C(F)(F)F)c2)c2ncc(-c3cnn(C)c3)cn2)CC(C)(C)CC1`
70

Quote IC50 with test system Cholesteryl ester transfer protein (Homo sapiens) for `COc1ccc(C(C)C)cc1C1=C(CN(Cc2cc(C(F)(F)F)cc(C(F)(F)F)c2)c2ncc(N3CCC(NC(C)=O)CC3)cn2)CC(C)(C)CC1`
520

Fetch value of IC50 on Cholesteryl ester transfer protein (Homo sapiens) for `COC(=O)COc1cnc(N(CC2=C(c3cc(C(C)C)ccc3OC)CCC(C)(C)C2)Cc2cc(C(F)(F)F)cc(C(F)(F)F)c2)nc1` .
910

Answer with IC50 of CCC1CCC(c2cc(C(C)C)ccc2OC)=C(CN(Cc2cc(C(F)(F)F)cc(C(F)(F)F)c2)c2ncc(-c3cnn(C)c3)cn2)C1 (stereo not drawn) measured for Cholesteryl ester transfer protein (Homo sapiens).
80

Give Cholesteryl ester transfer protein (Homo sapiens) IC50 for the following molecule: `COc1ccc(C(C)C)cc1C1=C(CN(Cc2cc(C(F)(F)F)cc(C(F)(F)F)c2)c2ncc(OCC(=O)O)cn2)CC(C)(C)CC1`
360

Fill in: IC50 on Cholesteryl ester transfer protein (Homo sapiens), entry `COc1ccc(C(C)C)cc1C1=C(CN(Cc2cc(C(F)(F)F)cc(C(F)(F)F)c2)c2ncc(N3CCN(C)CC3)cn2)CC(C)(C)CC1`
2070

Look up and report measured IC50 (Cholesteryl ester transfer protein (Homo sapiens)) for the following molecule: `COc1ccc(C(C)C)cc1C1=C(CN(Cc2cc(C(F)(F)F)cc(C(F)(F)F)c2)c2ncc(N3CCC(C(=O)O)CC3)cn2)CC(C)(C)CC1`
370

Report IC50 from Cholesteryl ester transfer protein (Homo sapiens) testing of `COc1ccc(C(C)C)cc1C1=C(CN(Cc2cc(C(F)(F)F)cc(C(F)(F)F)c2)c2ncc(-c3cnn(C)c3)cn2)CCc2ccccc21`
220

Send back Cholesteryl ester transfer protein (Homo sapiens) IC50 of `COc1ccc(C(C)C)cc1C1=C(CN(Cc2cc(C(F)(F)F)cc(C(F)(F)F)c2)c2ncc(O)cn2)CC(C)(C)CC1` only.
3520

# return IC50 of `COc1ccc(C(C)C)cc1C1=C(CN(Cc2cc(C(F)(F)F)cc(C(F)(F)F)c2)c2ncc(OCCCC(=O)O)cn2)CC(C)(C)CC1` (system: Cholesteryl ester transfer protein (Homo sapiens))
300

State IC50 (Cholesteryl ester transfer protein (Homo sapiens)) of COc1ccc(C(C)C)cc1C1=C(CN(Cc2cc(C(F)(F)F)cc(C(F)(F)F)c2)c2ncc(-c3cnn(C)c3)cn2)CC(C(C)(C)C)CC1 (stereo not drawn) .
70

Under Cholesteryl ester transfer protein (Homo sapiens), report IC50 for `COc1ccc(C(C)C)cc1C1=C(CN(Cc2cc(C(F)(F)F)cc(C(F)(F)F)c2)c2ncc(-c3cnn(C)c3)cn2)c2ccccc2CC1`
6630

# lookup: Cholesteryl ester transfer protein (Homo sapiens) IC50, key = `COc1ccc(C(C)C)cc1C1=C(CN(Cc2cc(C(F)(F)F)cc(C(F)(F)F)c2)c2ncc(N3CCC(N)CC3)cn2)CC(C)(C)CC1`
170

// output IC50; input `COc1ccc(C(C)C)cc1C1=C(CN(Cc2cc(C(F)(F)F)cc(C(F)(F)F)c2)c2ncc(-c3cnn(C)c3)cn2)CCCC1` ; system Cholesteryl ester transfer protein (Homo sapiens)
930

Supply IC50 measured with Cholesteryl ester transfer protein (Homo sapiens) for `COc1ccc(C(C)C)cc1C1=C(CN(Cc2cc(C(F)(F)F)cc(C(F)(F)F)c2)c2ncc(N3CCOCC3)cn2)CC(C)(C)CC1` .
860
